The entries below are paired with their reported inhibition.
# target: CDK8/Cyclin C (Homo sapiens) (UniProt P49336+P24863)
# assay-details: Inhibition of Alexa647 tracer binding to full length recombinant human His-tagged CDK8/Cyclin C expressed in baculovirus expression system at 5 uM preincubated for 20 mins followed by tracer addition measured after 60 mins by TR-FRET based Lanthascreen assay relative to control

// below: answered compounds
compound=COc1ccc(CC(=O)N2CCN(c3ccc(NC(=O)Nc4cccc(C(F)(F)F)c4)cc3)CC2)cc1 assay_readout=inhibition value_reported=99%
compound=Cc1cc(C)c2c(n1)SCCN2C(=O)Nc1ccc(C(=O)NCc2cccc(Cl)c2)cc1 assay_readout=inhibition value_reported=0%
compound=CCOC(=O)Cc1ccc(NC(=O)Nc2cc3c(cc2N2CCCC2)n(CC)c(=O)n3CC)cc1 assay_readout=inhibition value_reported=11%
compound=Cc1ccc(NC(=O)CCc2nc3ccncc3[nH]2)cc1F assay_readout=inhibition value_reported=7%
compound=O=C(Cc1ccccc1F)Nc1ccc2ncnc(N3CCCC3)c2c1 assay_readout=inhibition value_reported=14%

stdin: // query inhibition value for entry O=C1Nc2ccc(F)cc2/C1=N\Nc1ccc(C(=O)N2CCCC2COc2ccc(F)cc2)cc1 (stereo not drawn)
stdout: 3%

stdin: Note, next up: CSc1cccc(NC(=O)NC2CCN(c3ccc(F)cc3)C2=O)c1 (stereo not drawn)
stdout: 2%

stdin: Note, next up: Fc1ccc(N2CCN(c3ncnc4sc5c(c34)CCCC5)CC2)cc1
stdout: 81%
